Test system: Enterococcus faecalis NCTC 12697
Property name: MIC

Compound	Tested system	MIC
CC[C@H](C)[C@H](NC(=O)CNC(=O)CNC(=O)[C@H](C)NC(=O)[C@@H](NC(=O)[C@H](CCCCN)NC(=O)[C@@H]1CCCN1C(=O)[C@@H](NC(=O)[C@H](CC(C)C)NC(=O)[C@H](CO)NC(=O)[C@H](CC(C)C)NC(=O)[C@@H](N)Cc1ccccc1)[C@@H](C)CC)[C@@H](C)CC)C(=O)N[C@@H](C)C(=O)N[C@@H](C)C(=O)N[C@@H](CC(C)C)C(=O)N[C@H](C(=O)N[C@@H](CCCCN)C(=O)N[C@@H](CC(N)=O)C(=O)N[C@@H](CC(C)C)C(N)=O)C(C)C [FLSLIPKIAGGIAALVKNL]	Enterococcus faecalis NCTC 12697	≥ 32 µM
CC[C@H](C)[C@@H]1NC(=O)[C@H](C)NC(=O)[C@@H](NC(=O)[C@H](Cc2ccccc2)NC(=O)[C@@H](NC(=O)[C@H](CCCCN)NC(=O)[C@@H]2CCCN2C(=O)[C@H](CC(C)C)NC(=O)[C@@H](N)Cc2ccccc2)[C@@H](C)CC)CSSC[C@@H](C(=O)O)NC(=O)[C@H](CCCCN)NC(=O)[C@H](CCCCN)NC(=O)[C@H]([C@@H](C)O)NC1=O [FLPKIFCAITKKC]	Enterococcus faecalis NCTC 12697	≥ 512 µM

Below: the item to evaluate.
Bench note, Enterococcus faecalis NCTC 12697: CC[C@H](C)[C@H](NC(=O)[C@H](C)NC(=O)[C@H](CO)NC(=O)[C@@H](NC(=O)[C@H](C)NC(=O)[C@H](CCCCN)NC(=O)[C@@H]1CCCN1C(=O)[C@@H](NC(=O)[C@H](CC(C)C)NC(=O)[C@H](CO)NC(=O)[C@H](CC(C)C)NC(=O)[C@@H](N)Cc1ccccc1)[C@@H](C)CC)[C@@H](C)CC)C(=O)N[C@@H](CO)C(=O)N[C@@H](C)C(=O)N[C@@H](CC(C)C)C(=O)N[C@H](C(=O)N[C@@H](CC(N)=O)C(=O)N[C@@H](Cc1cnc[nH]1)C(=O)N[C@@H](Cc1ccccc1)C(N)=O)[C@@H](C)CC [FLSLIPKAISAISALINHF] , MIC reads ≥ 32 µM

* * *

Reported MIC values, Staphylococcus aureus.
Reply with just the number (in µM).

Answered examples (5):
Smiles structure	Unit spec	MIC
CC(C)C[C@H](NC(=O)[C@H](CCCCN)NC(=O)[C@H](CCCN=C(N)N)NC(=O)[C@H](Cc1ccccc1)NC(=O)[C@H](Cc1ccccc1)NC(=O)[C@H](CCCCN)NC(=O)[C@H](CCCCN)NC(=O)[C@H](Cc1ccccc1)NC(=O)[C@H](CCCN=C(N)N)NC(=O)[C@H](CCCCN)NC(=O)[C@@H](N)C(C)C)C(=O)N[C@@H](CCCCN)C(=O)N[C@@H](CCCCN)C(=O)N[C@@H](CO)C(=O)N[C@H](C(=O)N[C@@H](CCCCN)C(N)=O)C(C)C	µM	61.9
CC[C@H](C)[C@H](NC(=O)[C@H](CCCCN)NC(=O)[C@H](CCCCN)NC(=O)[C@H](CC(C)C)NC(=O)[C@@H](NC(=O)[C@H](CCCCN)NC(=O)[C@H](CCCCN)NC(=O)[C@H](Cc1c[nH]c2ccccc12)NC(=O)[C@H](CC(N)=O)NC(=O)[C@@H](N)C(C)C)C(C)C)C(=O)N[C@H](C(=O)N[C@@H](CCCCN)C(=O)N[C@H](C(=O)N[C@@H](C)C(=O)N[C@@H](CCCCN)C(N)=O)C(C)C)[C@@H](C)CC	µM	15.6
CC(C)C[C@H](NC(=O)[C@H](Cc1cnc[nH]1)NC(=O)[C@H](Cc1ccccc1)NC(=O)[C@H](Cc1cnc[nH]1)NC(=O)[C@@H](N)Cc1ccccc1)C(=O)N[C@@H](Cc1cnc[nH]1)C(=O)N[C@@H](Cc1ccccc1)C(N)=O	µM	32.5
CC(C)[C@H](NC(=O)[C@H](CCCN=C(N)N)NC(=O)[C@H](Cc1c[nH]c2ccccc12)NC(=O)[C@H](CCCN=C(N)N)NC(=O)[C@@H](NC(=O)[C@H](CCCN=C(N)N)NC(=O)[C@H](Cc1c[nH]c2ccccc12)NC(=O)[C@H](CCCN=C(N)N)NC(=O)[C@@H](NC(=O)[C@H](CCCN=C(N)N)NC(=O)[C@@H](N)Cc1c[nH]c2ccccc12)C(C)C)C(C)C)C(=O)N[C@@H](CCCN=C(N)N)C(N)=O	µM	1
CC[C@H](C)[C@H](NC(=O)[C@H](Cc1ccccc1)NC(=O)[C@@H]1CCCN1C(=O)[C@@H](NC(=O)[C@@H](N)CC(C)C)C(C)C)C(=O)NCC(=O)N[C@@H](CCCN=C(N)N)C(=O)N[C@H](C(=O)N[C@@H](CC(C)C)C(=O)NCC(=O)NCC(=O)N[C@@H](CC(C)C)C(=O)N[C@@H](CC(C)C)C(=O)N[C@@H](C)C(=O)N[C@@H](CCCN=C(N)N)C(=O)N[C@@H](Cc1ccccc1)C(N)=O)[C@@H](C)O	µM	64

Bench note, Staphylococcus aureus: CC[C@H](C)[C@H](NC(=O)[C@H](Cc1c[nH]c2ccccc12)NC(=O)[C@H](CCCCN)NC(=O)[C@H](CCCCN)NC(=O)[C@H](CC(C)C)NC(=O)[C@H](Cc1ccccc1)NC(=O)[C@H](CCCCN)NC(=O)[C@H](CCCCN)NC(=O)[C@H](CC(C)C)NC(=O)[C@H](CC(C)C)NC(=O)[C@H](CCCCN)NC(=O)[C@@H]1CCCN1)C(=O)NCC(=O)O , MIC reads 13

* * *

Tested on: Pseudomonas aeruginosa Ps4
Assay: ≥ marks a high value that may be exact or a test limit, other limits are often not marked, values filed in µg/mL are converted to µM
Property name: MIC

Answered examples (2):
Smiles structure	Value
CC(C)[C@H](NC(=O)[C@H](CCCCN)NC(=O)[C@H](CCCN=C(N)N)NC(=O)[C@H](Cc1ccccc1)NC(=O)[C@H](CC(N)=O)NC(=O)[C@H](CCCN=C(N)N)NC(=O)[C@H](CCC(N)=O)NC(=O)[C@H](Cc1c[nH]c2ccccc12)NC(=O)[C@@H](N)Cc1ccccc1)C(=O)N[C@@H](CCCN=C(N)N)C(N)=O	≥ 174 µM
CC[C@H](C)[C@H](NC(=O)[C@H](CC(N)=O)NC(=O)[C@H](CCCN=C(N)N)NC(=O)[C@H](CCC(N)=O)NC(=O)[C@H](Cc1c[nH]c2ccccc12)NC(=O)[C@@H](N)Cc1ccccc1)C(=O)N[C@@H](CCCN=C(N)N)C(=O)N[C@@H](CCCCN)C(=O)N[C@H](C(=O)N[C@@H](CCCCN)C(=O)N[C@@H](CCCCN)C(=O)N[C@@H](CCCCN)C(=O)N[C@@H](CCCCN)C(N)=O)C(C)C	≥ 142 µM

What the record says about NC(=O)[C@H](CCCN=C(N)N)NC(=O)[C@H](Cc1c[nH]c2ccccc12)NC(=O)[C@H](CCCN=C(N)N)NC(=O)[C@H](Cc1c[nH]c2ccccc12)NC(=O)[C@H](CCCN=C(N)N)NC(=O)[C@H](Cc1c[nH]c2ccccc12)NC(=O)[C@@H](N)Cc1ccccc1 : MIC is ≥ 52.4 µM

* * *

Reported MIC values follow for various compounds
System: Escherichia coli DH5alpha
Reply with just the number (in µM).

Smiles structure	Tested system	Value
CC(C)C[C@H](NC(=O)[C@H](CC(C)C)NC(=O)[C@H](CC(C)C)NC(=O)[C@H](CC(C)C)NC(=O)[C@H](CC(C)C)NC(=O)[C@H](CCCCN)NC(=O)[C@H](CCCCN)NC(=O)[C@@H](N)CCCCN)C(=O)N[C@@H](CCCCN)C(=O)N[C@@H](CCCCN)C(=O)N[C@@H](CCCCN)C(=O)O	Escherichia coli DH5alpha	16

Bench note, Escherichia coli DH5alpha: CC[C@H](C)[C@H](N)C(=O)N[C@@H](CC(C)C)C(=O)N1CCC[C@H]1C(=O)N[C@@H](Cc1c[nH]c2ccccc12)C(=O)N[C@@H](CCCCN)C(=O)N[C@@H](Cc1c[nH]c2ccccc12)C(=O)N[C@@H](C)C(=O)N[C@@H](Cc1c[nH]c2ccccc12)C(=O)N[C@@H](Cc1c[nH]c2ccccc12)C(=O)N1CCC[C@H]1C(=O)N[C@@H](Cc1c[nH]c2ccccc12)C(=O)N[C@@H](CCCN=C(N)N)C(=O)N[C@@H](CCCN=C(N)N)C(N)=O , MIC reads 10

* * *

Tested on: Pseudomonas aeruginosa ATCC 15442
Experiment: ≥ marks a high value that may be exact or a test limit, other limits are often not marked, values filed in µg/mL are converted to µM
Reported MIC values follow for various compounds

Answered examples (2):
Smiles structure	Tested system	MIC
CC[C@H](C)[C@H](NC(=O)[C@H](CCCCN)NC(=O)[C@H](CCC(N)=O)NC(=O)[C@H](CC(C)C)NC(=O)[C@@H](N)Cc1ccccc1)C(=O)N[C@H](C(=O)NCC(=O)N[C@@H](C)C(=O)N[C@@H](CC(C)C)C(=O)NCC(=O)N[C@@H](Cc1cnc[nH]1)C(=O)N[C@@H](CC(C)C)C(=O)N[C@@H](Cc1ccccc1)C(N)=O)[C@@H](C)CC	Pseudomonas aeruginosa ATCC 15442	6.2 µM
CC[C@H](C)[C@H](NC(=O)[C@H](CCCN=C(N)N)NC(=O)[C@H](CCCN=C(N)N)NC(=O)[C@H](CC(C)C)NC(=O)[C@H](Cc1c[nH]c2ccccc12)NC(=O)[C@H](C)NC(=O)[C@H](CCCCN)NC(=O)[C@@H](NC(=O)[C@H](CCCN=C(N)N)NC(=O)[C@H](CCCN=C(N)N)NC(=O)[C@H](CC(C)C)NC(=O)[C@@H](N)Cc1c[nH]c2ccccc12)[C@@H](C)CC)C(=O)N[C@@H](CCCCN)C(=O)N[C@@H](C)C(=O)O	Pseudomonas aeruginosa ATCC 15442	8 µM

What the record says about CC[C@H](C)[C@H](NC(=O)[C@H](CCSC)NC(=O)[C@H](C)NC(=O)[C@@H]1CCCN1C(=O)[C@@H](NC(=O)[C@H](CCCN=C(N)N)NC(=O)[C@H](CCCCN)NC(=O)[C@@H](NC(=O)[C@H](CC(C)C)NC(=O)CNC(=O)CNC(=O)[C@H](CC(C)C)NC(=O)[C@@H](N)Cc1ccccc1)[C@@H](C)CC)C(C)C)C(=O)N[C@H]1CSSC[C@@H](C(=O)O)NC(=O)[C@H](CCCCN)NC(=O)[C@H](CCCCN)NC(=O)[C@H](CCCN=C(N)N)NC(=O)[C@H](C(C)C)NC(=O)[C@H](C)NC1=O : MIC is ≥ 113 µM

What the record says about CC(C)C[C@H](NC(=O)[C@@H](N)CCCN=C(N)N)C(=O)N1CCC[C@H]1C(=O)N[C@@H](Cc1c[nH]c2ccccc12)C(=O)N[C@@H](CCCN=C(N)N)C(=O)N[C@@H](Cc1c[nH]c2ccccc12)C(=O)N1CCC[C@H]1C(=O)N[C@@H](CCCN=C(N)N)C(=O)N[C@@H](CCCN=C(N)N)C(=O)N1CCC[C@H]1C(=O)N[C@@H](Cc1c[nH]c2ccccc12)C(=O)N[C@@H](CCCN=C(N)N)C(=O)N[C@@H](CCCN=C(N)N)C(N)=O : MIC is ≥ 65.2 µM

What the record says about CC[C@H](C)[C@H](NC(=O)[C@@H](N)CCC(=O)O)C(=O)N[C@@H](CCC(=O)O)C(=O)N[C@@H](CCCCN)C(=O)N[C@@H](Cc1ccccc1)C(=O)N[C@@H](CC(=O)O)C(=O)N[C@@H](CCCCN)C(=O)N[C@@H](CO)C(=O)N[C@@H](CCCCN)C(=O)N[C@@H](CC(C)C)C(=O)N[C@@H](CCCCN)C(=O)O : MIC is ≥ 9160 µM

What the record says about CC(C)C[C@H](NC(=O)[C@H](CCCCN)NC(=O)[C@H](CO)NC(=O)[C@H](CCCCN)NC(=O)[C@H](CC(=O)O)NC(=O)[C@H](Cc1ccccc1)NC(=O)[C@H](CO)NC(=O)[C@H](C)NC(=O)[C@@H](NC(=O)[C@@H](N)CCC(=O)O)C(C)C)C(=O)N[C@@H](CCCCN)C(=O)O : MIC is ≥ 9990 µM
